assay: inhibition of PEG-3 promoter activity – cell-based, HeLa, luciferase luminescence, primary screen (AID 588405); conditions: HeLa PEG-Prom luciferase reporter, overnight, at 20 µM
Screen size: about 360,000 compounds; about 6,200 (1.7%) were called active.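 Rule for the calls: active = inhibition of at least 50% at 20 µM; inactive = the rest.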 The list comes from a sample in which actives are over-represented; it also holds close analogues and randomly drawn compounds.
Outcomes: T for active, F for inactive

Molecule	Class name
COc1ccc(OC)c(NC(=O)C2(C)CCN2C(=O)Cc2ccccc2)c1 (stereo unspecified)	F
COc1ccc(OCC(O)CNCCNc2nccc(C(F)(F)F)n2)cc1 (stereo unspecified)	F
Cc1[nH]c(=O)c(C(=O)/C=C/c2ccccc2)c2c1CCCC2	T
CCOC(=O)Nc1ccc2c(c1)N(C(=O)CN1CCN3CCCC3C1)c1ccccc1CC2 (stereo unspecified)	F
Cc1nn(CC(=O)NCCc2ccccc2)c(=O)c2cc3occc3n12	F
CC(C)Oc1ccc(CN2CCC2(C)C(=O)NCc2ccc(C(F)(F)F)cc2)cc1 (stereo unspecified)	F

Source of measurements: PubChem BioAssay AID588405
